Provenance of the data: patent US5872138A

molecular target: human a-thrombin (Homo sapiens); construct: human a-thrombin; test: In vitro assay for determining proteinase inhibition (thrombin Ki); type: biochemical; conditions: Table I; 25° C., pH 7.4; read-out: Ki (thr)
// Ki lookup, one value per entry

Example entries and their recorded answers appear below.
[[record]]
compound = "Nc1cc[n+](Cc2ccc(OCc3ccccc3)nc2)cc1"
target_entity = "human a-thrombin (Homo sapiens)"
value = "> 1 µM"

[[record]]
compound = "Nc1cc[n+](Cc2ccc(OC(CCc3ccccc3)c3ccccc3)cc2)cc1 (centres unmarked)"
target_entity = "human a-thrombin (Homo sapiens)"
value = "0.1 to 1 µM"

[[record]]
compound = "Nc1cc[n+](Cc2ccc(OC(C3CCCCC3)C3CCCCC3)cc2)cc1"
target_entity = "human a-thrombin (Homo sapiens)"
value = "0.1 to 1 µM"

[[record]]
compound = "Nc1cc[n+](Cc2ccc(OCC(C3CCCCC3)C3CCCCC3)cc2)cc1"
target_entity = "human a-thrombin (Homo sapiens)"
value = "0.1 to 1 µM"


Now for the compound whose Ki we want.
Query: Given the compound COc1cc(C[n+]2ccc(N)cc2)ccc1OCc1ccccc1 , what is its reported Ki?
Reply: > 1 µM

* * *

Recorded Ki for the following molecules
target: human a-thrombin (Homo sapiens); construct: human a-thrombin; assay: In vitro assay for determining proteinase inhibition (thrombin Ki); format: biochemical; conditions: Table 4; 25° C., pH 7.4; read-out: Ki (thr)

The following molecules have reported results that may help.
[[record]]
molecule = "c1ccc(-c2cc(CNc3ccncc3)ccc2OCC2CCCCC2)cc1"
value = "> 10 µM"

[[record]]
molecule = "CC(C)CCc1cc(CNc2ccncc2)ccc1OCC1CCCCC1 [drawing 174]"
value = "1 to 10 µM"


Now look at this one.
Query: Would you kindly share the measured Ki for CCCc1cc(CNc2ccncc2)ccc1OCc1cccc2ccccc12 ?
Reply: 1 to 10 µM

* * *

molecular target: human a-thrombin (Homo sapiens, UniProt P00734); construct: human a-thrombin; test: In vitro assay for determining proteinase inhibition (thrombin Ki); type: biochemical; settings: Table I; 25° C., pH 7.4; read-out: Ki (thr)
pKi: −log10 of the molar value.
result type: pKi

Query: Request body: readout pKi, system human a-thrombin (Homo sapiens, UniProt P00734), query Nc1cc[n+](Cc2ccc(OCc3ccccc3)cc2)cc1 . Return the value.
Reply: 6.00 to 7.00

Query: What reported pKi corresponds to Nc1cc[n+](Cc2ccc(OC(c3ccccc3)c3ccccc3)cc2)cc1 on human a-thrombin (Homo sapiens, UniProt P00734)?
Reply: > 7.00

Query: Param readout= pKi; system= human a-thrombin (Homo sapiens, UniProt P00734); entry= Nc1cc[n+](Cc2ccc(-c3ccccc3)cc2)cc1 ; returns value.
Reply: < 6.00

Query: Param readout= pKi; system= human a-thrombin (Homo sapiens, UniProt P00734); entry= Nc1cc[n+](Cc2ccc(OCc3ccccc3)c(OCc3ccccc3)c2)cc1 ; returns value.
Reply: < 6.00

Query: Request - read-out pKi | tested on human a-thrombin (Homo sapiens, UniProt P00734) | compound Nc1cc[n+](Cc2ccc(OCc3ccccc3)cn2)cc1
Reply: < 6.00

Query: Tell me reported pKi for Nc1cc[n+](Cc2ccc(OCC(c3ccccc3)c3ccccc3)cc2)cc1 , tested with human a-thrombin (Homo sapiens, UniProt P00734).
Reply: 6.00 to 7.00
